Data provenance is patent US9550811B2.

Could you please report measured Extracellular staining, median for the items listed next?
test system: human PBMCs; assay: Extracellular staining for biotinylated peptides (flow cytometry); format: cell-based
# answer = number (no unit)

GET Extracellular staining, median where system = human PBMCs and item = EEGYIPLVGAPLGEEVARALAHGVRV [compound 10, HCV (Not scaffold)]
1.95

GET Extracellular staining, median where system = human PBMCs and item = GYIPLVGAPLGGVARALAHGVRV [compound 5]
2.08

GET Extracellular staining, median where system = human PBMCs and item = RGYIPLVGAPLGRRRVARALAHGVRVR [compound 6]
2.20

GET Extracellular staining, median where system = human PBMCs and item = RRGYIPLVGAPLGRRVARALAHGVRV [compound 8]
3.06

GET Extracellular staining, median where system = human PBMCs and item = RGYLPAVGAPIGRRRVIRVIAHGLRLR [compound 7]
29.42

GET Extracellular staining, median where system = human PBMCs and item = RRSRNLGKVIDTLTCRRLMGYIPLVGA [compound 13]
16.80

GET Extracellular staining, median where system = human PBMCs and item = GGGYIPLVGAPLGGGVARALAHGVRV [compound 11, HCV (Not scaffold)]
2.62

GET Extracellular staining, median where system = human PBMCs and item = WGYIPLVGAPLGRRVARALAHGVRV [compound 19]
1.37

GET Extracellular staining, median where system = human PBMCs and item = RRGGGQIVGGVYLLPRRGPRLGVRATR [compound 14]
17.00

GET Extracellular staining, median where system = human PBMCs and item = RRIRNLGRVIETLTLZGYIPLIGARRIRNLGRVIETLTLZGYIPLIGAR [compound 20]
126.5

GET Extracellular staining, median where system = human PBMCs and item = RRGYIPLVGAPLGRRRVARALAHGVRV [compound 9]
2.06

GET Extracellular staining, median where system = human PBMCs and item = RRGPVVHLTLRRRGQAGDDFS [compound 2, Neg control in scaffold, reference compound]
1.77

###

test system: human PBMCs; assay type: cell-based; conditions: With Cytofix/Cytoperm and trypsination; BC20; concentration 208 μM
READOUT_TYPE: Geomean value (peptide-fluorescence)
# answer = number (no unit)

Given WGYIPLVGAPLGRRVARALAHGVRV [SP12] , respond with its Geomean value (peptide-fluorescence).
8679

Given BRGYIPLVGAPLGRRVARALAHGVRV [SP7] , respond with its Geomean value (peptide-fluorescence).
10481

Given RGYIPLVGAPLGRRVARALAHGVRV [SP3] , respond with its Geomean value (peptide-fluorescence).
10788

Given RRGPVVHLTLRGRRGQAGDDFS [SP20] , respond with its Geomean value (peptide-fluorescence).
1268

Given RRGYIPLVGAPLGRRVARALAHGVRV [SP5] , respond with its Geomean value (peptide-fluorescence).
19065

Given RGYIPLVGAPLGRRRVARALAHGVRVR [SP4] , respond with its Geomean value (peptide-fluorescence).
7540

Given RGYIPLVGAPLGKKKVARALAHGVRV [SP9] , respond with its Geomean value (peptide-fluorescence).
2945

Given RRRGYIPLVGAPLGBRVARALAHGVRV [SP8] , respond with its Geomean value (peptide-fluorescence).
9617

Given RGYIPLVGAPLGRRRVARALAHGVRV [SP10] , respond with its Geomean value (peptide-fluorescence).
7684

Given EEGYIPLVGAPLGEEVARALAHGVRV [SP14] , respond with its Geomean value (peptide-fluorescence).
392

Given EEGYIPLVGAPLGRRVARALAHGVRV [SP16] , respond with its Geomean value (peptide-fluorescence).
1260

Given WWGYIPLVGAPLGRRVARALAHGVRV [SP13] , respond with its Geomean value (peptide-fluorescence).
332

Given KKGYIPLVGAPLGKKVARALAHGVRV [SP11] , respond with its Geomean value (peptide-fluorescence).
1277

###

target: HLA-B27 (Homo sapiens, UniProt P01889, D138H/D201E/E176V/E204Q/G107R/H137Y/K202T/N104T/N87E/Q56L/Q94K/R106L/R155S/R180L/S101D/S121N/S48T/Y140D/Y33H/Y91C); assay: REVEAL binding assay; settings: score as percentage of the signal generated by the positive control peptide
Where no end group is shown, it is not given here. [ ]: non-standard residue; d: D form. Nle = CCCC[C@H](N)C(=O)O
Mark true (1) only when REVEAL binding score, HLA-type B27 stays strictly below 1%. Values equal to the cut-off are false (0).

In plain terms, does VARALAHGV come in under 1% for REVEAL binding score, HLA-type B27?
true (1)

In plain terms, does RVIETLTSG come in under 1% for REVEAL binding score, HLA-type B27?
false (0)

In plain terms, does YIPLVGAPL come in under 1% for REVEAL binding score, HLA-type B27?
true (1)

In plain terms, does IVGGVYLLP come in under 1% for REVEAL binding score, HLA-type B27?
true (1)

In plain terms, does RNLGKVIDT come in under 1% for REVEAL binding score, HLA-type B27?
false (0)

In plain terms, does NLPGCSFSI come in under 1% for REVEAL binding score, HLA-type B27?
false (0)

In plain terms, does GNLPGCSFS come in under 1% for REVEAL binding score, HLA-type B27?
false (0)

In plain terms, does NLGKVIDTL come in under 1% for REVEAL binding score, HLA-type B27?
false (0)

In plain terms, does GGQIIGGNY come in under 1% for REVEAL binding score, HLA-type B27?
true (1)

In plain terms, does VIDTLTCGF come in under 1% for REVEAL binding score, HLA-type B27?
false (0)

In plain terms, does VIETLTSGF come in under 1% for REVEAL binding score, HLA-type B27?
false (0)

In plain terms, does NYATGNLPG come in under 1% for REVEAL binding score, HLA-type B27?
false (0)

In plain terms, does EL[Nle]GYIPLI come in under 1% for REVEAL binding score, HLA-type B27?
true (1)

In plain terms, does SRNLGKVID come in under 1% for REVEAL binding score, HLA-type B27?
false (0)

In plain terms, does VTGNIPGST come in under 1% for REVEAL binding score, HLA-type B27?
false (0)

In plain terms, does GRVIETLTS come in under 1% for REVEAL binding score, HLA-type B27?
false (0)

In plain terms, does GYIPLVGAP come in under 1% for REVEAL binding score, HLA-type B27?
false (0)

In plain terms, does TGNLPGCSF come in under 1% for REVEAL binding score, HLA-type B27?
false (0)

In plain terms, does YATGNLPGC come in under 1% for REVEAL binding score, HLA-type B27?
false (0)

In plain terms, does QIVGGVYLL come in under 1% for REVEAL binding score, HLA-type B27?
true (1)

###

Could you please report measured REVEAL binding score, HLA-type B40 for the items listed next?
test system: HLA-B40; assay: REVEAL binding assay; details: score as percentage of the signal generated by the positive control peptide
Where no end group is shown, it is not given here. [ ]: non-standard residue; d: D form. Cit = NC(=O)NCCC[C@H](N)C(=O)O
Hi! Could you send only the number? It should be in %, unit omitted.

Given LPAVGAPIG , respond with its REVEAL binding score, HLA-type B40.
39.31

Given VARALAHGV , respond with its REVEAL binding score, HLA-type B40.
44.29

Given VTGNIPGST , respond with its REVEAL binding score, HLA-type B40.
130.97

Given [Cit]IGVRAT[Cit]R , respond with its REVEAL binding score, HLA-type B40.
18.45

Given NYATGNLPG , respond with its REVEAL binding score, HLA-type B40.
75.28

Given LMGYIPLVG , respond with its REVEAL binding score, HLA-type B40.
33.55

Given GNIPGSTYS , respond with its REVEAL binding score, HLA-type B40.
55.59

Given RALAHGVRV , respond with its REVEAL binding score, HLA-type B40.
70.26

Given ATGNLPGCS , respond with its REVEAL binding score, HLA-type B40.
90.48

Given GKVIDTLTC , respond with its REVEAL binding score, HLA-type B40.
19.45

Given YIPLVGAPL , respond with its REVEAL binding score, HLA-type B40.
30.22

Given LGKVIDTLT , respond with its REVEAL binding score, HLA-type B40.
44.92

Given GYLPAVGAP , respond with its REVEAL binding score, HLA-type B40.
27.82

Given VIETLTSGF , respond with its REVEAL binding score, HLA-type B40.
24.04

Given GQIIGGNYL , respond with its REVEAL binding score, HLA-type B40.
31.55

Given GGQIVGGVY , respond with its REVEAL binding score, HLA-type B40.
30.75

Given GITFSIYLI , respond with its REVEAL binding score, HLA-type B40.
68.30

Given MGYIPLVGA , respond with its REVEAL binding score, HLA-type B40.
40.78

Given TGNLPGCSF , respond with its REVEAL binding score, HLA-type B40.
73.71

Given NIPGSTYSL , respond with its REVEAL binding score, HLA-type B40.
37.01
